Entries annotated with measured HCR
# System: human colon carcinoma HT29
# EXPERIMENT NOTES: Proliferation assay (IC50) under aerobic and hypoxic conditions, HT29
# Format: cell-based
# CONDITION SUMMARY: hypoxic cytotoxicity ratio = IC50 aerobic/IC50 hypoxic
The reply should be a number, written without any unit.

Reference set, count: 5
COMPOUND | HCR
[O-][n+]1nc(CCCO)[n+]([O-])c2cc3c(cc21)CCC3 | 57
[O-][n+]1nc(NCCN2CCCCC2)[n+]([O-])c2cc3c(cc21)CCC3 | 49
CC1Cc2cc3c(cc2C1)[n+]([O-])c(CCCN1CCOCC1)n[n+]3[O-] (centres unmarked) | 72
COCCN(C)CCNc1n[n+]([O-])c2cc3c(cc2[n+]1[O-])CCC3 | 26
CN(C)CCNc1n[n+]([O-])c2cc3c(cc2[n+]1[O-])CCC3 | 152

Query block: # query: HCR | item CCN(CC)CCNc1n[n+]([O-])c2c3c(ccc2[n+]1[O-])CCC3 | system: human colon carcinoma HT29
Result block: 17

Query block: Next compound up: CCc1n[n+]([O-])c2cc3c(cc2[n+]1[O-])CC(CCN1CCOCC1)C3 (centres unmarked)
Result block: 36

Query block: Next compound up: CN(C)CCNc1n[n+]([O-])c2cc3c(cc2[n+]1[O-])CCO3
Result block: 23
